- measured-target: bovine serum albumin (BSA) (Bos taurus)
- Construct: purchased Sigma-Aldrich (MO, USA)
- Sequence (P02769 25-607): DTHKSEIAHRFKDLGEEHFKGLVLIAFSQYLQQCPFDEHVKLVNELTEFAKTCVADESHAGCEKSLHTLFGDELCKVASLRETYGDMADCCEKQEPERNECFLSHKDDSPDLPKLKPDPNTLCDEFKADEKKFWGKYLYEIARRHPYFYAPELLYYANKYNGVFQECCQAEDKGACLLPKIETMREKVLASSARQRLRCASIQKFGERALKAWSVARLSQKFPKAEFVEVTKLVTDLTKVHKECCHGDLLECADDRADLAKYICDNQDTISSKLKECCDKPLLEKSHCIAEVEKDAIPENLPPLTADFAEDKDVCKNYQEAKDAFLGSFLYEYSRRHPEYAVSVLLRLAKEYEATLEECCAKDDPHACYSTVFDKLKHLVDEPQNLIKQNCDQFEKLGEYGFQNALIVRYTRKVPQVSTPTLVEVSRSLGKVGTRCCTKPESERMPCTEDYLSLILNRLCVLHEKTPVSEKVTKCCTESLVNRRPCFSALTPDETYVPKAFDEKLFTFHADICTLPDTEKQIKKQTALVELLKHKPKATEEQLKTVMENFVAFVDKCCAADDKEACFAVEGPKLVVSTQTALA
- protocol-notes: Protein precipitation capacity (PPC), turbidimetric well-plate reader assay with BSA, log-normal dose–response model
- Format: biochemical
- measurement-setup: slope parameter of log-normal dose–response model; SE in parentheses
property-measured: slope

What the record says about `Oc1ccc([C@H]2Oc3c(c(O)cc(O)c3C(c3cc(O)c(O)c(O)c3)c3c(O)cc(O)c4c3O[C@H](c3ccc(O)c(O)c3)[C@@H](O)C4)C[C@@H]2O)cc1O` : slope is 2.04 (0.06)

Lab note: measured slope of Oc1ccc(C(c2c(O)cc(O)c3c2O[C@H](c2ccc(O)c(O)c2)[C@H](O)C3)c2c(O)cc(O)c3c2O[C@H](c2ccc(O)c(O)c2)[C@H](O)C3)cc1O [Compound 8, Epicatechin–catecholmethine–epicatechin] was 2.30 (0.08)

// slope value for Oc1cc(O)c2c(c1)O[C@H](c1ccc(O)c(O)c1)[C@H](O)[C@H]2c1c(O)cc(O)c2c1O[C@H](c1ccc(O)c(O)c1)[C@H](O)[C@H]2c1c(O)cc(O)c2c1O[C@H](c1ccc(O)c(O)c1)[C@H](O)C2 [Compound 13, PC C1, reference compound] : 1.79 (0.08)

So for `Oc1ccc(C(c2c(O)cc(O)c3c2O[C@H](c2ccc(O)c(O)c2)[C@@H](O)C3)c2c(O)cc(O)c3c2O[C@H](c2ccc(O)c(O)c2)[C@@H](O)C3)cc1O` , the logged slope turned out to be 1.90 (0.06)

Briefly, slope measured for `Oc1ccc([C@H]2Oc3c(c(O)cc(O)c3C(c3cc(O)c(O)c(O)c3)c3c(O)cc(O)c4c3O[C@H](c3ccc(O)c(O)c3)[C@H](O)C4)C[C@H]2O)cc1O` : 2.48 (0.08)
